Each recorded value in this set is attributed to a flash point compilation (Sun et al. 2020).

Assign criterion met to entries whose flash point meets or exceeds 60 °C; assign criterion not met to the rest.

Textbook exercise: given the entry CCCC(C)CO (centres undefined) , state whether its flash point is greater than or equal to 60 °C.
criterion not met

# bool: flash point of "CCCCCCCC" >= 60 °C
criterion not met

Does CN(C)c1ccccc1 [N,N-DIMETHYLANILINE] have a reported flash point of at least 60 °C?
criterion met

Kindly determine if flash point recorded for "C=CCCCC" is above or exactly 60 °C.
criterion not met

Could you tell me if the measured flash point of CN(C)c1ccccc1 [N,N-Dimethylaniline] reaches 60 °C or more?
criterion met

Confirm if flash point reported for the compound "COCCOC" is 60 °C or above.
criterion not met

Tell me whether flash point is at least 60 °C here: "CCc1ccc(CC)cc1"
criterion not met

Decide: flash point of "Cc1ccc(O)c(C)c1" >= 60 °C?
criterion met

Please tell me: is the compound CC(C)C(C)O (centres undefined) at or over 60 °C in terms of flash point?
criterion not met

Can "NC1CCCC1" be said to have flash point at or above 60 °C?
criterion not met

Kindly determine if flash point recorded for "CCCCCCCCCCCCC" is above or exactly 60 °C.
criterion met

Exam item: decide whether the reported flash point for "CCC1CCCC1" is at least 60 °C.
criterion not met

// inclusive: flash point at least 60 °C? input: CCCCCC#N [HEXANENITRILE]
criterion not met

Can CCCCCCCCCO [1-NONANOL] be said to have flash point at or above 60 °C?
criterion met

----------
Can you tell me flash point for the items I'm about to list?
Expressed in °C, but write only the number.

Value of measured flash point for the entry CC/C=C/CC [trans-3-hexene] : -25

// recorded flash point for "C=C(C)C(C)(C)C" : -17

Reported flash point for "CCC(O)CC" was 33

// flash point value for "CCCC(=O)c1ccccc1" : 88

// recorded flash point for "COCc1ccccc1" : 53

flash point measured on C1=COCC1 [2,3-dihydrofuran] = -24

Form: compound = CCCC(C)C(C)C (stereo not drawn) ; flash point = 5

C=C(C)C(=O)OCC [ethylmethacrylate] yielded flash point of 19

Note to self: flash point recorded for "CCC#CCCCCCC" was 52

Input "CCCC#N" . Output flash point: 18

Noted for "C1CCSC1" : its flash point reads 13

Please fill in: flash point reported for CCCCCCC(C)CC (stereo not drawn) = 41

What the record says about CCC(C)Cl (stereo not drawn) : flash point is -15

----------
recorded endpoint: flash point (°C)
The reply should contain only the number, in °C.

Summary for this molecule, "C=C(CC)CC" : flash point is -26

According to the records, this molecule C=CN(C)C(C)=O [N-vinyl-N-methylacetamide] displays flash point of 63

Form field flash point, entry "CCCC=O" : -7

Item: CCCC(S)CC (configuration not stated) | flash point: 30

Measured flash point, CCC(C)C(CC)CC (configuration not stated) : 15

Measured flash point of "CCc1ccccc1" : 21

Consider "Cc1cccnc1" . Its measured flash point is 36

Reported flash point for CC(C)COC(=O)c1ccccc1C(=O)OCC(C)C [diisobutylphthalate] was 185

Entry "O=C1CCCCCC1" ; flash point = 56

Data point: "CCC(=O)CCc1ccccc1" ; flash point = 103

Per the record, CC/C=C/CCCC [trans-3-octene] has flash point of 9

For CCCC(=O)OCC [ethylbutanoate] the molecule record lists flash point as 20
